Measurement record for UniProt:P41597; quantity recorded: IC50.
Sequence (P41597 whole entry): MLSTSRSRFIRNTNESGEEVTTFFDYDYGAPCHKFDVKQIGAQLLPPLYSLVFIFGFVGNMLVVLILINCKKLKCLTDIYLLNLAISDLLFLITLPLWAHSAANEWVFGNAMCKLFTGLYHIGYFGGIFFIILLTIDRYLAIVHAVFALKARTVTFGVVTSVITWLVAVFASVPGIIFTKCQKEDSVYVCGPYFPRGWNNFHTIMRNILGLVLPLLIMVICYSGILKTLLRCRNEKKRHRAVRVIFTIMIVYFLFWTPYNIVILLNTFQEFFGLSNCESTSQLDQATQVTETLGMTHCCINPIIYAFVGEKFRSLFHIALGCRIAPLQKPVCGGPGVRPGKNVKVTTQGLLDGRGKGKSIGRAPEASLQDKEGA
readout: IC50 (nM)

{"columns": ["compound", "readout", "measured"],
 "data": [
  ["CC1COCCC1N[C@@H]1CC[C@@](C(=O)NCc2cc(C(F)(F)F)cc(C(F)(F)F)c2)(C(C)C)C1 (stereo not given in full)", "IC50", 239]
]}

P = CC(C)[C@]1(C(=O)NCc2cc(C(F)(F)F)cc(C(F)(F)F)c2)CC[C@@H](NC2CCCOC2)C1 (stereo not given in full)
Q = CC1COCC(C)C1N[C@@H]1CC[C@@](C(=O)NCc2cc(C(F)(F)F)cc(C(F)(F)F)c2)(C(C)C)C1 (stereo not given in full)
R = CCCC1COCCC1N[C@@H]1CC[C@@](C(=O)NCc2cc(C(F)(F)F)cc(C(F)(F)F)c2)(C(C)C)C1 (stereo not given in full)
S = CC(C)[C@]1(C(=O)NCc2cc(C(F)(F)F)cc(C(F)(F)F)c2)CC[C@@H](NC2CCSC2)C1 (stereo not given in full)
Challenge: Number of compounds to sort: 4. Sort criterion: IC50, ascending. Quick reminder: the answer is the labels in the order asked.
Response given: R, P, S, Q
